Test system: Transient receptor potential cation channel subfamily C member 4 (TRPC4beta), mouse
Assay: TRPC4 channel inhibitors, SAR follow-up, cell-based, HEK293 TRPC4beta/mu-opioid, Fluo-4 calcium flux, single concentration (AID 492988)
Settings: DAMGO-evoked Fluo4 calcium flux, at 10 µM
Records with an inconclusive call do not appear. Activity calls are given as the source filed them.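 Rule for the calls: active = duplicate-averaged calcium signal falling below the mean of the agonist-only control wells less 5 SD; inactive = the rest, inconclusive results apart.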
I would appreciate it if you answered using one of these outcomes: active, inactive

In [3]: df
Out[3]:
                 test_smiles  class_label
0  COCCN(C)c1cc(C)c2ccccc2n1     inactive

Could you check what this test reported for `Cc1ccc2nc(N3CCCC3)cc(C)c2c1` ?
active

Could you check what this test reported for `Cc1ccnc(N2CCCCC2)c1` ?
active

Could you check what this test reported for `Cc1cc(N2CCOc3ccccc32)nc2ccccc12` ?
active

Could you check what this test reported for `Cc1cc(N2CCCCC2)nc2ccc(F)cc12` ?
active

Could you check what this test reported for `COc1ccc(N2CCN(c3cc(C)c4ccccc4n3)CC2)cc1` ?
inactive

Could you check what this test reported for `CCN(CC)c1cc(C)c2ccccc2n1` ?
active
